Task for the reader: assign each of the following compounds its reported Log2 differential normalized TPM ratio compared to glucose.
system: L. acidophilus NCFM; assay: RNA-seq transcriptional analysis of L. acidophilus NCFM growing on plant glycosides; assay type: cell-based, Lactobacillus acidophilus; settings: LBA1705 PTS system IIBC component, COG G
Numbers only.

For each of the compounds below, state Log2 differential normalized TPM ratio compared to glucose.
1. O=c1ccc2cc(O[C@@H]3O[C@H](CO)[C@@H](O)[C@H](O)[C@H]3O)c(O)cc2o1
2. OC[C@H]1O[C@@H](O[C@H]2[C@H](O)[C@@H](O)[C@@H](O)O[C@@H]2CO)[C@H](O)[C@@H](O)[C@H]1O
3. N#C[C@H](O[C@@H]1O[C@H](CO[C@@H]2O[C@H](CO)[C@@H](O)[C@H](O)[C@H]2O)[C@@H](O)[C@H](O)[C@H]1O)c1ccccc1
4. OCc1ccccc1O[C@@H]1O[C@H](CO)[C@@H](O)[C@H](O)[C@H]1O

Response given:
1. 2.2
2. 0.8
3. 2.7
4. 1.3
